Would you kindly list kon for each of these binders?
- subject-of-test: T1, human VEGF (human, UniProt P15692 207-395, biotinylated (site not stated))
- T1 construct: Biotinylated human VEGF generated internally; also called hVEGF; hVEGF-biotin
- T1 sequence: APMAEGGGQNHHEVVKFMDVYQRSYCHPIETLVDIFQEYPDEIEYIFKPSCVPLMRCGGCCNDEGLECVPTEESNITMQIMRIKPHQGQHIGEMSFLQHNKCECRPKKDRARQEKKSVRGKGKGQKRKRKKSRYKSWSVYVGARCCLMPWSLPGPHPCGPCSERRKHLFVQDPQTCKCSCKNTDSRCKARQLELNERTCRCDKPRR
- assay-notes: Biacore SPR, hVEGF
Just the number please, in M⁻¹ s⁻¹, no unit attached.

Param item = NVS4 light chain variant T53K (Fab, V domains shown, CDR variant of NVS4) VH: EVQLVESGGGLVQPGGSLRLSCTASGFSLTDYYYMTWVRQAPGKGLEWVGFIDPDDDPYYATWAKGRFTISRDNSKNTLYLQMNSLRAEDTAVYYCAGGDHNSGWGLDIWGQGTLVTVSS VL: EIVMTQSPSTLSASVGDRVIITCQASEIIHSWLAWYQQKPGKAPKLLIYLASKLASGVPSRFSGSGSGAEFTLTISSLQPDDFATYYCQNVYLASTNGANFGQGTKLTVLK ; retrieve measured kon.
4.6e+06

Dear colleague, I am looking for the recorded kon of the following binder: HC6T (Fab, V domains shown, Tagged heavy chain CDR variant HC6 with NVS4 light chain) VH: EVQLVESGGGLVQPGGSLRLSCTASGFSLTNYYYMTWVRQAPGKGLEWVGFIDPQNQPYYATWAKGRFTISRDNSKNTLYLQMNSLRAEDTAVYYCAGGNHNSGWGLNIWGQGTLVTVSS VL: EIVMTQSPSTLSASVGDRVIITCQASEIIHSWLAWYQQKPGKAPKLLIYLASTLASGVPSRFSGSGSGAEFTLTISSLQPDDFATYYCQNVYLASTNGANFGQGTKLTVLK
1.25e+08

Dear colleague, I am looking for the recorded kon of the following binder: LC7T (Fab, V domains shown, Light chain CDR variant LC7 with tagged NVS4 heavy chain) VH: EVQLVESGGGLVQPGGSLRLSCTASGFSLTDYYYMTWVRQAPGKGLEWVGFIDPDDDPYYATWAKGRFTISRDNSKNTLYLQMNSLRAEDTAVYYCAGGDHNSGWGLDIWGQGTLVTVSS VL: EIVMTQSPSTLSASVGDRVIITCQASQKIKSWLAWYQQKPGKAPKLLIYLASTLAKGVPSRFSGSGSGAEFTLTISSLQPDDFATYYCQNVYLASRNGANFGQGTKLTVLK
6.06e+07
